TARGET UNDER TEST: T1, Suc-AAPI-pNA
T1 chain: AAPI
CONDITION SET: scale: relative to the substrate with the highest activity
METRIC NAME: relative activity (initial increase in OD405)
API note: the answer field is a bare number with no unit suffix.

Glutamyl endopeptidase blaSE from Bacillus licheniformis (protein) SVIGSDDRTRVTNTTAYPYRAIVHISSSIGSCTGWMIGPKTVATAGHCIYDTSSGSFAGTATVSPGRNGTSYPYGSVKSTRYFIPSGWRSGNTNYDYGAIELSEPIGNTVGYFGYSYTTSSLVGTTVTISGYPGDKTAGTQWQHSGPIAISETYKLQYAMDTYGGQSGSPVFEQSSSRTNCSGPCSLAVHTNGVYGGSSYNRGTRITKEVFDNLTNWKNSAQ    0
Serine protease from Nocardiopsis sp NRRL 18262 (protein) ADIIGGLAYTMGGRCSVGFAATNAAGQPGFVTAGHCGRVGTQVTIGNGRGVFEQSVFPGNDAAFVRGTSNFTLTNLVSRYNTGGYATVAGHNQAPIGSSVCRSGSTTGWHCGTIQARGQSVSYPEGTVTNMTRTTVCAEPGDSGGSYISGTQAQGVTSGGSGNCRTGGTTFYQEVTPMVNSWGVRLRT    0.0004

Lab note: next protein to report on.
The value of relative activity (initial increase in OD405) measured for the protein Serine protease bppB from Bacillus pumilus JA16 (protein) VVIGDDGRTKVTNTRVAPYNSIAYITFGGSSCTGTLIAPNKILTNGHCVYNTATRSYSAKGSVYPGMNDSTAVNGSANMTEFYVPSGYINTGASQYDFAVIKTDTNIGNTVGYRSIRQVTNLTGTTIKISGYPGDKMRSTGKVSQWEMSGPVTREDTNLAYYTIDTFSGNSGSAMLDQNQQIVGVHNAGYSNGTINGGPKATAAFVEFINYAKAQ turned out to be 0
